This collection of values is drawn from patent US20240109917A1.

For each of the molecules below, state its pIC50.
- assayedTarget: Tb-labeled inactive PDGFRβ (Homo sapiens (Human))
- experimentDescription: PDGFRβ LanthaScreen Assay
- statedConditions: read-out: PDGFR Lantha IC50
One number for each entry, as −log10 of the molar value.

[in] Provide pIC50, recorded with Tb-labeled inactive PDGFRβ (Homo sapiens (Human)), of Cc1ncc(NC(=O)[C@@H]2C[C@H](C)CN2C)cc1NC(=O)c1cnn2cc(-c3cccnc3O)sc12
[out] 7.66

[in] Provide pIC50, recorded with Tb-labeled inactive PDGFRβ (Homo sapiens (Human)), of Cc1ncc(C(=O)NCCN2CC(C)(C)C2)cc1NC(=O)c1cnn2cc(-c3cccnc3)sc12
[out] 7.49

[in] Provide pIC50, recorded with Tb-labeled inactive PDGFRβ (Homo sapiens (Human)), of COCCn1cc(-c2cn3ncc(C(=O)Nc4cc(NC(=O)C5(CN6CCC[C@@H]6C)CC5)cnc4C)c3s2)cn1
[out] 6.42

[in] Provide pIC50, recorded with Tb-labeled inactive PDGFRβ (Homo sapiens (Human)), of Cc1ncc(NC(=O)CN2CCC23CCC3)cc1NC(=O)c1cnn2cc(-c3cnn4c3COCC4)sc12
[out] 8.85

Provide the reported pIC50 of each entry below, same order.
1. Cc1ncc(C(=O)NCCN2CCC23CCC3)cc1NC(=O)c1cnn2cc(-c3cnn(C)c3C)sc12
2. Cc1cc(C(=O)NCCN2CCc3ccccc3C2)sc1NC(=O)c1cnn2cc(-c3cnn(C)c3)sc12

[out]
1. 8.55
2. 6.38

====

- assayedTarget: PDGFRβ (Rattus norvegicus (Rat))
- Sequence (Q05030 32-1097): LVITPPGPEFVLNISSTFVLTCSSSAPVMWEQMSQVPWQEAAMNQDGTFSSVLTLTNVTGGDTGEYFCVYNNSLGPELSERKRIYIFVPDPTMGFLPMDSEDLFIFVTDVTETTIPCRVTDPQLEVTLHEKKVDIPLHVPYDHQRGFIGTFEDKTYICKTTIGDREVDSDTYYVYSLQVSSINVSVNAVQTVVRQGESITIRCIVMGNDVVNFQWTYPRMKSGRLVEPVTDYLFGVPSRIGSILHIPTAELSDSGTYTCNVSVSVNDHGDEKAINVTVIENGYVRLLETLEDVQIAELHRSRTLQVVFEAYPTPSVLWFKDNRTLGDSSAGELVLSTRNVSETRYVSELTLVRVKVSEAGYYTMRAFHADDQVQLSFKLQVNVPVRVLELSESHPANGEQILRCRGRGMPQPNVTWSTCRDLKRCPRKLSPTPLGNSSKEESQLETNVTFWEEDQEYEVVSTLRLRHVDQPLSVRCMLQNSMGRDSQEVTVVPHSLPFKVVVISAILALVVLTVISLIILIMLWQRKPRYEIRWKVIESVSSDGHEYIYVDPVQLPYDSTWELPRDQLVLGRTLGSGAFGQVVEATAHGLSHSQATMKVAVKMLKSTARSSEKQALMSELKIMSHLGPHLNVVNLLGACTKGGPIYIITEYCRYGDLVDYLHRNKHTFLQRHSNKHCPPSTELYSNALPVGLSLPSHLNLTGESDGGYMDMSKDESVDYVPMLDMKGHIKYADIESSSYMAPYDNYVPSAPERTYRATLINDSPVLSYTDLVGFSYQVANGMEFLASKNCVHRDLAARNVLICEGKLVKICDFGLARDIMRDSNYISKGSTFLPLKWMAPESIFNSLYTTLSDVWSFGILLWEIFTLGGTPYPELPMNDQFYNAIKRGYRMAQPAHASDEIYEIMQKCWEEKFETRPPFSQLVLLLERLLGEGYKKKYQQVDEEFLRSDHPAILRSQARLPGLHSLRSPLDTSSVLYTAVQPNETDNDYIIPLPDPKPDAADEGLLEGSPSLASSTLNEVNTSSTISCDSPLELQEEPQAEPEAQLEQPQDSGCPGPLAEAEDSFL
- experimentDescription: PDGFRβ Cellular Assay (PDGFRb P-Y751 HTRF in A10 cells stimulated with PDGF-BB)
- Type: cell-based
- statedConditions: read-out: PDGFR Cellular IC50
For each of the compounds below, state its IC50.
Numbers only, in nM.

[in] Using known records, supply IC50 for Cc1ncc(NC(=O)CN2CC3(CCCCO3)C2)cc1NC(=O)c1cnn2cc(-c3cnn4c3OCCC4)sc12 [Example 423]
[out] 15.8

[in] Using known records, supply IC50 for Cc1ncc(NC(=O)CN2CCc3c(cnn3C)C2)cc1NC(=O)c1cnn2cc(-c3cnn(C)c3)sc12 [Example 57]
[out] 124

[in] Using known records, supply IC50 for Cc1ncc(NC(=O)CN2CCC3(CCOC3)C2)cc1NC(=O)c1cnn2cc(-c3cnn(C)c3)sc12 (stereo not shown) [Example 19]
[out] 12.9

[in] Using known records, supply IC50 for Cc1ncc(C(=O)NCCN2CC(F)(F)C2)cc1NC(=O)c1cnn2cc(-c3ccncc3)sc12 [Example 152]
[out] 66.2

[in] Using known records, supply IC50 for Cc1ncc(NC(=O)CN2CCc3cnn(C)c3C2)cc1NC(=O)c1cnn2cc(-c3cnn(C)c3)sc12 [Example 17]
[out] 69.5

[in] Using known records, supply IC50 for Cc1ncc(C(=O)NCCN2CCCC2(C)C)cc1NC(=O)c1cnn2cc(-c3cnn(Cc4cc(OCc5ccccc5)no4)c3)sc12 [Example 362]
[out] 62.3

Below: the item to evaluate.
[in] Using known records, supply IC50 for Cc1ncc(C(=O)NCCN2C3CCC2CC3)cc1NC(=O)c1cnn2cc(-c3cnn(C)c3C)sc12 [Example 172]
[out] 66.6

====

- assayedTarget: His6-TEV-PDGFRβ (557-1016) (Homo sapiens (Human), UniProt P09619)
pIC50: −log10 of the molar value.
Label Met when pIC50 is at or above 9; otherwise label Not met.

Reference set, count: 4
[in] Exam item: decide whether the reported pIC50 for Cc1cc(C(=O)NCCN2CCCC2(C)C)sc1NC(=O)c1cnn2cc(-c3cccnc3)sc12 [Example 36] is at least 9.
[out] Met

[in] Exam item: decide whether the reported pIC50 for Cc1ncc(NC(=O)CN2CCCC23CCC3)cc1NC(=O)c1cnn2cc(-c3cnn(CCO)c3)sc12 [Example 29] is at least 9.
[out] Met

[in] Exam item: decide whether the reported pIC50 for Cc1ncc(C(=O)NCCN2CCOCC23CCC3)cc1NC(=O)c1cnn2cc(-c3cnn(C)c3)sc12 [Example 117] is at least 9.
[out] Met

[in] Exam item: decide whether the reported pIC50 for Cc1ncc(NC(=O)CN2CC(C)(C)C2)cc1NC(=O)c1cnn2cc(-c3ccnnc3C)sc12 [Example 410] is at least 9.
[out] Not met

***
[in] Exam item: decide whether the reported pIC50 for Cc1ncc(NC(=O)CN2C[C@@H](C)O[C@@H](C)C2)cc1NC(=O)c1cnn2cc(-c3cnn(C)c3)sc12 [Example 53] is at least 9.
[out] Met

====

- assayedTarget: Tb-labeled inactive PDGFRβ (Homo sapiens (Human), UniProt P09619)
- Sequence (P09619 33-1106): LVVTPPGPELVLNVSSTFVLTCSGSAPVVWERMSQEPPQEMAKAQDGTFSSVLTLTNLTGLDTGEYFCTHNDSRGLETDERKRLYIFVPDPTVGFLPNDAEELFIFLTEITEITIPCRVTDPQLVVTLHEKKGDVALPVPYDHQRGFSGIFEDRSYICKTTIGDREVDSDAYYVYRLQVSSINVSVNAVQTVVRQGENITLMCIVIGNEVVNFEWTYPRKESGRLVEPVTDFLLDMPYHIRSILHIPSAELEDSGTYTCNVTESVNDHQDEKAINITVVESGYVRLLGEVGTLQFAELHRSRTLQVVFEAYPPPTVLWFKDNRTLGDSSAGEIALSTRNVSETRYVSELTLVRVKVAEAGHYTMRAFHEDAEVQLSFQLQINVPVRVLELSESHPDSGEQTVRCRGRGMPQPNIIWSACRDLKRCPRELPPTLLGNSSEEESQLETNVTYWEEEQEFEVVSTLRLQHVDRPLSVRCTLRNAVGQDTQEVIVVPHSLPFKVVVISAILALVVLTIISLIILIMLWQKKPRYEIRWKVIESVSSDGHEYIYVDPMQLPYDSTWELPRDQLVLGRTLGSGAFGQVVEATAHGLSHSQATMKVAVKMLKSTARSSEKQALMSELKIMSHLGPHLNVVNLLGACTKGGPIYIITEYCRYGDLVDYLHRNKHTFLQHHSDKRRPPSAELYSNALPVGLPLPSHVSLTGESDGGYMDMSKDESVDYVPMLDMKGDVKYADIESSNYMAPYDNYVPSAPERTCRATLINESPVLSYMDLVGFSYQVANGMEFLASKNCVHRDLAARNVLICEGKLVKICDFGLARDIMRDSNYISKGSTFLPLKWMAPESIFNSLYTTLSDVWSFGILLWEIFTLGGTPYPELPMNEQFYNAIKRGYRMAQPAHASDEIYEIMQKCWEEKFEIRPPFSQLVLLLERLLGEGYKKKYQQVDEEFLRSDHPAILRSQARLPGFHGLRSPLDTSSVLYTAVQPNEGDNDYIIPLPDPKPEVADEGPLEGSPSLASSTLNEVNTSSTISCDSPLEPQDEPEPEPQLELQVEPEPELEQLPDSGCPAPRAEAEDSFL
- experimentDescription: PDGFRβ LanthaScreen Assay
- statedConditions: read-out: PDGFR Lantha IC50
For each of the molecules below, state its pIC50.
Answers are plain numbers, as −log10 of the molar value.

Known results for molecules:
[in] Using known records, supply pIC50 for Cc1ncc(C(=O)NCCN2CCCC2(C)C)cc1NC(=O)c1cnn2cc(-c3ccc(N)nc3)sc12 [Example 130]
[out] 8.37

[in] Using known records, supply pIC50 for Cc1ncc(NC(=O)OCC(C)(C)N2CCCC2)cc1NC(=O)c1cnn2cc(-c3cnn(C)c3)sc12 [Example 249]
[out] 8.19

[in] Using known records, supply pIC50 for CC(=O)Nc1ccnc(-c2cn3ncc(C(=O)Nc4cc(C(=O)NCCN5CC6CCC5CC6)cnc4C)c3s2)c1 [Example 146]
[out] 8.37

[in] Using known records, supply pIC50 for Cc1ncc(NC(=O)CN2CCC[C@H]2C)cc1NC(=O)c1cnn2cc(-c3nn(C)nc3C)sc12 [Example 443]
[out] 8.36

[in] Using known records, supply pIC50 for Cc1ncc(NC(=O)CC2CN(C)C2)cc1NC(=O)c1cnn2cc(-c3cnn4c3CCC4)sc12 [Example 468]
[out] 6.83

[in] Using known records, supply pIC50 for COCCn1cc(-c2cn3ncc(C(=O)Nc4cc(NC(=O)CN5CCC(C)(C)C5)cnc4C)c3s2)cn1 [Example 336]
[out] 8.48

[in] Using known records, supply pIC50 for Cc1ncc(C(=O)NCCN2CCCC2)cc1NC(=O)c1cnn2cc(-c3cnn(CC(O)CO)c3)sc12 (centres unmarked) [Example 225]
[out] 7.91

[in] Using known records, supply pIC50 for Cc1ncc(C(=O)NCCN2CC3CCC2CC3)cc1NC(=O)c1cnn2cc(-c3cnn(CC#N)c3)sc12 [Example 151]
[out] 8.55

[in] Using known records, supply pIC50 for COc1ncccc1-c1cn2ncc(C(=O)Nc3cc(NC(=O)CN4CC5(COC5)C4)cnc3C)c2s1 [Example 404]
[out] 8.31

[in] Using known records, supply pIC50 for Cc1ncc(NC(=O)OCCN2CCCC2)cc1NC(=O)c1cnn2cc(-c3cnn(C)c3)sc12 [Example 246]
[out] 7.19

Provide the reported pIC50 of each entry below, same order.
1. COCCn1cc(-c2cn3ncc(C(=O)Nc4cc(NC(=O)CCN5CCC56CCC6)cnc4C)c3s2)cn1 [Example 95]
2. Cc1ncc(NC(=O)CCN2CCCC2(C)C)cc1NC(=O)c1cnn2cc(-c3cnn(C)c3)sc12 [Example 10]
3. COCCn1nc(C)c(-c2cn3ncc(C(=O)Nc4cc(NC(=O)CCN5CCC6(CC6)C5)cnc4C)c3s2)c1C [Example 103]
4. Cc1ncc(NC(=O)CN2CCC[C@@H]2C)cc1NC(=O)c1cnn2cc(-c3cnn(CCO)c3)sc12 [Example 84]

[out]
[8.29, 8.55, 8.07, 7.96]

====

For each of the molecules below, state its IC50.
- assayedTarget: His6-TEV-PDGFRβ (557-1016) (Homo sapiens (Human), UniProt P09619)
- experimentDescription: PDGFRβ HTRF Assay
- Assay type: biochemical
- statedConditions: read-out: PDGFR HTRF IC50
One number for each entry, in nM.

Known results for molecules:
[in] Using known records, supply IC50 for Cc1ncc(C(=O)NCCN2CCCC2(C)C)cc1NC(=O)c1cnn2cc(-c3cnn(C)c3C)sc12 [Example 173]
[out] 0.3

[in] Using known records, supply IC50 for Cc1ncc(NC(=O)CN2CCCC23COC3)cc1NC(=O)c1cnn2cc(-c3cnn(C)c3)sc12 [Example 20]
[out] 0.7

[in] Using known records, supply IC50 for Cc1ncc(NC(=O)CC2CN(C)C2)cc1NC(=O)c1cnn2cc(-c3cnn4c3CCC4)sc12 [Example 427]
[out] 2.1

***
[in] Using known records, supply IC50 for CC[C@H]1COCCN1CC(=O)Nc1cnc(C)c(NC(=O)c2cnn3cc(-c4cnn(C)c4)sc23)c1 [Example 70]
[out] 0.2

====

Here's what we have: pIC50 numbers for His6-TEV-PDGFRβ (557-1016) (Homo sapiens (Human)).
One number for each entry, as −log10 of the molar value.

[in] Provide pIC50, recorded with His6-TEV-PDGFRβ (557-1016) (Homo sapiens (Human)), of Cc1ncc(C(=O)N2CC2CNC(C)(C)C)cc1NC(=O)c1cnn2cc(-c3cccc4c3cnn4C)sc12 (stereo not shown)
[out] 8.30

[in] Provide pIC50, recorded with His6-TEV-PDGFRβ (557-1016) (Homo sapiens (Human)), of Cc1ncc(C(=O)NCCN2CCCC2(C)C)cc1NC(=O)c1cnn2cc(-c3cnn(C)n3)sc12
[out] 8.77

[in] Provide pIC50, recorded with His6-TEV-PDGFRβ (557-1016) (Homo sapiens (Human)), of Cc1ncc(NC(=O)CN2CCC23CCC3)cc1NC(=O)c1cnn2cc(-c3cnn4c3COCC4)sc12
[out] 9.70

[in] Provide pIC50, recorded with His6-TEV-PDGFRβ (557-1016) (Homo sapiens (Human)), of Cc1ncc(C(=O)NCCN2CC3CCC2CC3)cc1NC(=O)c1cnn2cc(-c3ccncc3)sc12
[out] 9.52

[in] Provide pIC50, recorded with His6-TEV-PDGFRβ (557-1016) (Homo sapiens (Human)), of Cc1cnn(C)c1-c1cn2ncc(C(=O)Nc3cc(NC(=O)CN4CC(C)(C)C4)cnc3C)c2s1
[out] 9.22

Provide the reported pIC50 of each entry below, same order.
1. COCCn1cc(-c2cn3ncc(C(=O)Nc4cc(NC(=O)CCN5C[C@H]6CC[C@@H]5C6)cnc4C)c3s2)cn1
2. Cc1ncc(NC(=O)CN2CCC2(C)C)cc1NC(=O)c1cnn2cc(-c3cnn(C)c3)sc12

[out]
9.30
8.80
